Entry source: ChEMBL document CHEMBL3508693

test: AUC(0-24h) of aliskiren hemifumarate following 2 week oral dosing of aliskiren hemifumarate at 10 mg.Kg-1 level studied on day 14 in female Callithrix jacchus; assay type: ADME, organism-based; conditions: marmoset, plasma
Recorded Metric: AUC at 24 h (ng·h/mL)

INSERT INTO results (compound, measured_number) VALUES
  ('COCCCOc1cc(C[C@@H](C[C@H](N)[C@@H](O)C[C@H](C(=O)NCC(C)(C)C(N)=O)C(C)C)C(C)C)ccc1OC.COCCCOc1cc(C[C@@H](C[C@H](N)[C@@H](O)C[C@H](C(=O)NCC(C)(C)C(N)=O)C(C)C)C(C)C)ccc1OC.O=C(O)/C=C/C(=O)O [ALISKIREN FUMARATE]', 29000);

----------
assay: Oral clearance of SPP100 following single oral dose of SPP100 600 mg capsule studied in healthy human; assay type: ADME, organism-based; settings: plasma
Recorded Metric: CL/F (mL/min)

INSERT INTO measurements (structure_smiles, measured_number) VALUES
  ('COCCCOc1cc(C[C@@H](C[C@H](N)[C@@H](O)C[C@H](C(=O)NCC(C)(C)C(N)=O)C(C)C)C(C)C)ccc1OC', 3700);

----------
assay: Cmax of [14C] aliskiren hemifumarate following single intravenous dose of [14C] aliskiren hemifumarate at 10 mg.Kg-1 level in mouse; format: ADME, organism-based, TgRasH2, Plasma; conditions: in vivo
Recorded Metric: Cmax (µM)

INSERT INTO assay_data (structure_smiles, measured_number) VALUES
  ('COCCCOc1cc(C[C@@H](C[C@H](N)[C@@H](O)C[C@H](C(=O)NCC([14CH3])([14CH3])C(N)=O)C(C)C)C(C)C)ccc1OC.O=C(O)/C=C/C(=O)O', 14.6);

----------
test: Cmax of unlabeled aliskiren hemifumarate following single oral dose of aliskiren hemifumarate at 500 mg.Kg-1 level in mouse; assay type: ADME, organism-based; conditions: TgRasH2, mouse, plasma
Recorded Metric: Cmax (nM)

INSERT INTO assay_data (molecule, measured_number) VALUES
  ('COCCCOc1cc(C[C@@H](C[C@H](N)[C@@H](O)C[C@H](C(=O)NCC(C)(C)C(N)=O)C(C)C)C(C)C)ccc1OC.COCCCOc1cc(C[C@@H](C[C@H](N)[C@@H](O)C[C@H](C(=O)NCC(C)(C)C(N)=O)C(C)C)C(C)C)ccc1OC.O=C(O)/C=C/C(=O)O [ALISKIREN FUMARATE]', 1450);

----------
assay: AUC(0-24h) of aliskiren hemifumarate following 2 week oral dosing of aliskiren hemifumarate at 100 mg.Kg-1 level studied on day 1 in male Callithrix jacchus; type: ADME, organism-based; details: marmoset, plasma
Recorded Metric: AUC(0-t) at 24 h

INSERT INTO measurements (compound, result) VALUES
  ('COCCCOc1cc(C[C@@H](C[C@H](N)[C@@H](O)C[C@H](C(=O)NCC(C)(C)C(N)=O)C(C)C)C(C)C)ccc1OC.COCCCOc1cc(C[C@@H](C[C@H](N)[C@@H](O)C[C@H](C(=O)NCC(C)(C)C(N)=O)C(C)C)C(C)C)ccc1OC.O=C(O)/C=C/C(=O)O [ALISKIREN FUMARATE]', '76400 ng·h/mL');

----------
assay: Cmax of aliskiren hemifumarate following 2 week oral dosing of aliskiren hemifumarate at 50 mg.Kg-1 level studied on day 14 in male Callithrix jacchus; assay type: ADME, organism-based; conditions: marmoset, plasma
Recorded Metric: Cmax (ng/mL)

INSERT INTO assay_data (molecule, unit_text, measured_number) VALUES
  ('COCCCOc1cc(C[C@@H](C[C@H](N)[C@@H](O)C[C@H](C(=O)NCC(C)(C)C(N)=O)C(C)C)C(C)C)ccc1OC.COCCCOc1cc(C[C@@H](C[C@H](N)[C@@H](O)C[C@H](C(=O)NCC(C)(C)C(N)=O)C(C)C)C(C)C)ccc1OC.O=C(O)/C=C/C(=O)O [ALISKIREN FUMARATE]', 'ng/mL', 12300);
